Molecular target: menin (Homo sapiens, UniProt O00255, T541A)
Construct: Menin (a.a. 1-610-6×his tag)
Sequence (O00255 with tags, fused parts or gaps T541A): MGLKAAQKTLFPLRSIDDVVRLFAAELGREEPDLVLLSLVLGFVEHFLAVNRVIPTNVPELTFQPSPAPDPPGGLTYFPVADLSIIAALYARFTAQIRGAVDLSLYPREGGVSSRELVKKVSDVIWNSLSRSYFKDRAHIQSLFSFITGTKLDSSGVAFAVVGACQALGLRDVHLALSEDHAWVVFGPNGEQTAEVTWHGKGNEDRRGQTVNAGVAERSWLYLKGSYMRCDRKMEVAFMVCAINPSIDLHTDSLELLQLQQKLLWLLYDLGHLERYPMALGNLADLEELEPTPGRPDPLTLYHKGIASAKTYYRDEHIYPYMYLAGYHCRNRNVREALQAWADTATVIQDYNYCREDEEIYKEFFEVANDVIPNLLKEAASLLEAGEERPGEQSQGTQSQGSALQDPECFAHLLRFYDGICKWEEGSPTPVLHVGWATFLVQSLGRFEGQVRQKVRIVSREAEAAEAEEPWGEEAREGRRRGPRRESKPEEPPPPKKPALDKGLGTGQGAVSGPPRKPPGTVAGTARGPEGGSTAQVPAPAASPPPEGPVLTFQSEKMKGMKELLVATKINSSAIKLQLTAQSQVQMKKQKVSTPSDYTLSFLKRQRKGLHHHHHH
Test: Menin/MLL homogenous time-resolved fluorescence (HTRF) assay
Assay type: binding
Conditions: location 2; read-out: (2) location 2 Menin HTRF assay (IC50 (nM))
quantity kind: IC50 (nM)
Dear colleague, please return just the value in nM, with no unit written.

For this compound ( COc1nc(N2CCC3(CC(Nc4ccccc4)C3)C2)c2cc(CC(F)(F)F)sc2n1 (single isomer, unassigned) [Compound 266] ), measured IC50 is 1020

The reported IC50 of the compound FC(F)(F)Cc1cc2c(N3CCC4(CC(Nc5ccccc5)C4)C3)ncnc2s1 (mixture of isomers) [Compound 35] was 48.6

Notebook: CNc1nc(N2CCC3(CC(NCc4ccccc4)C3)C2)c2cc(CC(F)(F)F)sc2n1 (single isomer, unassigned) [Compound 62] , IC50 read as 115

Noted for CNc1nc(N2CCC3(CC(Nc4ccc5oc(=O)[nH]c5c4)C3)C2)c2cc(CC(F)(F)F)sc2n1 (single isomer, unassigned) [Compound 398] : its IC50 reads 16.2

Entry Cn1c(=O)[nH]c2ccc(CN[C@H]3CCC4(C3)CN(c3ncnc5sc(CC(F)(F)F)cc35)C4)cc21 (stereo in doubt) , IC50 reported as 65

IC50 in this record for N#Cc1cccc(NC2CC3(CCN(c4ncnc5sc(CC(F)(F)F)cc45)C3)C2)c1 (mixture of isomers) : 77.6

Per the record, CNC(=O)c1ccc(NC2CC3(CCN(c4ncnc5sc(CC(F)(F)F)cc45)C3)C2)cc1OCCN(C)C (centres unmarked) [Compound 76] has IC50 of 354

Quick note, IC50 for CC(=O)Nc1ccc(NC2CC3(CCN(c4ncnc5sc(CC(F)(F)F)cc45)C3)C2)cc1 (mixture of isomers) [Compound 330] landed at 19.6

compound NC(=O)Cn1c(=O)[nH]c2cc(NC3CC4(CCN(c5ncnc6sc(CC(F)(F)F)cc56)C4)C3)ccc21 (single isomer, unassigned) [Compound 360] , IC50 observed: 448

IC50 in this record for CNC(=O)c1ccc(NC2CC3(CCN(c4ncnc5sc(CC(F)(F)F)cc45)C3)C2)c(F)c1 (centres unmarked) [Compound 66] : 26.8

# compound FC(F)(F)Cc1cc2c(N3CCC4(CC(CNc5ccccc5)C4)C3)ncnc2s1 (centres unmarked) ; its IC50 = 447

Looking up O=C1Cc2ccc(N[C@@H]3CCC4(C3)CN(c3ncnc5sc(CC(F)(F)F)cc35)C4)cc2N1 (single isomer, unassigned) , I found its IC50 recorded as 11

Record Cc1cc2ccc(NC3CCC4(C3)CN(c3ncnc5sc(CC(F)(F)F)cc35)C4)cc2[nH]1 (centres unmarked) . Reported IC50: 42.7
